Structures can show the parent of a compound that is named as a salt.

>  <Molecule>
CN1CCCCC1C(NC(=O)Nc1cc(F)c2[nH]nc(NC(=O)c3ccccc3)c2c1)c1ccccc1 (stereo not shown) (as salt: fumaric acid salt)

>  <melting point / °C>
164

$$$$
>  <Molecule>
CN1CCCCC1C(OC(=O)Nc1ccc2[nH]ncc2c1)c1cc(F)cc(Cl)c1 (stereo not shown) (as salt: hydrochloride)

>  <melting point / °C>
172

$$$$
>  <Molecule>
C=CCN1CCCC[C@H]1[C@@H](NC(=O)Nc1ccc2[nH]ncc2c1)c1ccccc1

>  <melting point / °C>
195

$$$$
>  <Molecule>
O=C(Nc1ccc2[nH]ncc2c1)N[C@@H](c1cc(F)cc(Cl)c1)[C@@H]1CCCCN1 (as salt: hydrochloride)

>  <melting point / °C>
208

$$$$
>  <Molecule>
O=C(Nc1ccc2[nH]ncc2c1)N[C@@H](c1ccc(Cl)c(Cl)c1)[C@@H]1CCCCN1

>  <melting point / °C>
216

$$$$
